Tested on: 786-0 renal
experimental.protocol: NCI-60 one-dose screen, 48 h (100 = growth as untreated, 0 = no growth, -100 = all killed)
condition.details: 10 µM unless noted
The panel holds about 83,000 compounds, 20% with a hit somewhere; the sample as a whole holds those more often.
Values of growth greater than or equal to 20% map to class 1; values below map to class 0.

1) COC(=O)[C@@H](C)C[C@H](Cc1ccc(F)cc1)NC(=O)c1csc([C@@H](C[C@H](C(C)C)N(C)C(=O)[C@@H](NC(=O)[C@H]2CCCCN2C)C2CC2)OC(C)=O)n1 : class 0
2) CCCCC1(CCC)C(=O)NC(=S)NC1=O : class 1
3) COc1cccc2c1c(C(=O)C(=O)Nc1ccn[nH]1)cn2Cc1ccc(F)cc1 : class 1
4) CN1CCCCC1C(C)(O)c1ccccc1 (centres undefined) : class 1
5) COC(=O)CCc1c[nH]c2ccc(N(CCCl)CCCl)cc12 : class 1
6) CN1C(=O)N[C@H]2[C@@H]3NC(=O)c4ccc(Br)n4[C@@H]3C[C@]21O : class 0
7) CN[C@]1(c2ccccc2Cl)CCCC[C@H]1NCCCN1CCN(C)CC1 : class 1
8) CC[C@H](C)[C@H](NC(=O)N[C@@H](C)c1ccccc1)C(=O)N(C)[C@H](C[C@@H](OC(C)=O)c1nc(C(=O)N[C@@H](Cc2ccccc2)C[C@H](C)C(=O)OC)cs1)C(C)C : class 0
9) O=C(CCCCCCC(=O)Nc1ccc(N(CCCl)CCCl)cc1)NO : class 1
